Recorded measurements of pIC50, one per entry
- TEST_SYSTEM: wild-type EGFR (A431 cells) (Homo sapiens, UniProt P00533)
- Construct: A431 bears amplification of the wild-type EGFR gene; endogenous in cells; host or cells: A431
- Sequence (P00533 25-1210): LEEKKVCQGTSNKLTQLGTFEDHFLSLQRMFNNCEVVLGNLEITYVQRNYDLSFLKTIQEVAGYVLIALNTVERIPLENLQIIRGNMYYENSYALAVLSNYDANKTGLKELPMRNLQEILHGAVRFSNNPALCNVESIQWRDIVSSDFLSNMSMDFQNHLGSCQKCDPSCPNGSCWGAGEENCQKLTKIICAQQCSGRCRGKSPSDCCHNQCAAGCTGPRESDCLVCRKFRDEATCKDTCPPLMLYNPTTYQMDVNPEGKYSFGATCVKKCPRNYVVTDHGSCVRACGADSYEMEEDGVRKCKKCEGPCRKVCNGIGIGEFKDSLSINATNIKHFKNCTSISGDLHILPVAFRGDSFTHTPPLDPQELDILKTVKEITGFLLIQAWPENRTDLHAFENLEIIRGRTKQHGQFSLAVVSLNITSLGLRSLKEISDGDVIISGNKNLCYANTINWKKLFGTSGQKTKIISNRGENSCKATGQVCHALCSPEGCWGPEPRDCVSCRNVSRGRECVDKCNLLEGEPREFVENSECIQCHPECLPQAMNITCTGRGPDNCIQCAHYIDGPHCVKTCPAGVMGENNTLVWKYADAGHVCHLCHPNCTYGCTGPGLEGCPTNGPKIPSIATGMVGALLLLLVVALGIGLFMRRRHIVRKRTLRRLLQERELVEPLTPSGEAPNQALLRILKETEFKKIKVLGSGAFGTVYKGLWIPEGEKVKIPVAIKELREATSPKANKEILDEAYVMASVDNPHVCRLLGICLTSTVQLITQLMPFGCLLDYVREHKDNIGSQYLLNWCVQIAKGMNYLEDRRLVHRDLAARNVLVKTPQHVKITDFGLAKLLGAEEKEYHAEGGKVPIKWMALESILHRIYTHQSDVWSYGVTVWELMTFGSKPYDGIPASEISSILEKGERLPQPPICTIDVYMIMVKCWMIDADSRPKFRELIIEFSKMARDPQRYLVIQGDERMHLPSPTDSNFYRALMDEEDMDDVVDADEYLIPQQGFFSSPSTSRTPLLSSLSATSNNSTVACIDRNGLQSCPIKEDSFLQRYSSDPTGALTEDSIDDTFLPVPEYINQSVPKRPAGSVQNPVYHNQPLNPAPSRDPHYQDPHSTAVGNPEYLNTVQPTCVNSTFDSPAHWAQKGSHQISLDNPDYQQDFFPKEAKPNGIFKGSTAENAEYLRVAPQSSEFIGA
- METHOD: Cellular phosphorylation assay, pEGFR (phospho-EGFR Tyr1068 AlphaLISA) in A431
- Assay type: cell-based
- TEST_PARAMETERS: compound incubated for 5 hours, EGF (30 ng/mL) for 15 minutes
pIC50: −log10 of the molar value.

MOLECULE | pIC50
C=CC(=O)N1CC=C(c2nc3c(Nc4ccc(Oc5ccn6ncnc6c5)c(C)c4)ncnc3cc2OC)CC1 [Example 66] | 6.30 to 7.00
C=CC(=O)N1CC=C(c2ncc3ncnc(Nc4ccc(Oc5ccn6ncnc6c5)c(C)c4F)c3n2)CC1 [Example 37] | 6.00 to 6.30
C=CC(=O)N1CCC2(C1)CN(c1ncc3ncnc(Nc4ccc(Oc5ccn6ncnc6c5)c(C)c4F)c3n1)C2 [Example 47] | ≤ 6.00
C=CC(=O)N1CCC(c2ncc3ncnc(Nc4ccc(Oc5ccn6ncnc6c5)c(C)c4)c3n2)=C[C@@H]1C [Example 94] | 6.00 to 6.30
C=CC(=O)N1CCN(c2ncc3ncnc(Nc4cc(C)c(Oc5ccn6ncnc6c5)cc4F)c3n2)C[C@@H]1C [Example 36] | ≤ 6.00
C=CC(=O)N1CCN(c2ncc3ncnc(Nc4ccc(Oc5ccn6ncnc6c5)c(C)c4F)c3n2)[C@@H](C)C1 [Example 43] | 6.30 to 7.00
C=CC(=O)N1CCN(c2ncc3ncnc(Nc4ccc(Oc5ccc6c(c5)ncn6C)cc4F)c3n2)CC1 [Example 67] | ≤ 6.00
C=CC(=O)N1CC=C(c2ccc3ncnc(Nc4ccc(Oc5cc(OC)n6ncnc6c5)c(C)c4)c3n2)CC1 [Example 15] | ≤ 6.00
C=CC(=O)N1CCN(c2ncc3ncnc(Nc4ccc(Oc5ccc6c(c5)ncn6C)c(C)c4F)c3n2)CC1 [Example 74] | 6.30 to 7.00
C=CC(=O)N1CCC(c2ccc3ncnc(Nc4ccc(Oc5ccn6ncnc6c5)c(C)c4)c3n2)C(C)C1 (stereo not drawn) [Example 28] | ≤ 6.00
C=CC(=O)N1CC2(C1)CN(c1ccc3ncnc(Nc4ccc(Oc5ccn6ncnc6c5)c(C)c4)c3n1)C2 [Example 23] | ≤ 6.00
C=CC(=O)N1CC=C(c2ccc3ncnc(Nc4ccc(Oc5ccn6nccc6c5)c(C)c4)c3n2)CC1 [Example 72] | > 7.00
Cc1c(Oc2ccn3ncnc3c2)ccc(Nc2ncnc3cnc(C4=CCN(C(=O)/C=C/CN(C)C)CC4)nc23)c1F [Example 69] | 6.00 to 6.30
C=CC(=O)N1CCC=C(c2ccc3ncnc(Nc4ccc(Oc5ccn6ncnc6c5)c(C)c4)c3n2)C1 [Example 27] | ≤ 6.00
C=CC(=O)N1CCN(c2ccc3ncnc(Nc4ccc(Oc5ccn6ncnc6c5)c(C)c4)c3n2)C(=O)C1 [Example 8] | ≤ 6.00

----------
- TEST_SYSTEM: Ba/F3 HER2-YVMA cells (HER2-A775_G776insYVMA) (Homo sapiens, UniProt P04626, DUP772-775, cells depend on it)
- Sequence (P04626 with tags, fused parts or gaps DUP772-775): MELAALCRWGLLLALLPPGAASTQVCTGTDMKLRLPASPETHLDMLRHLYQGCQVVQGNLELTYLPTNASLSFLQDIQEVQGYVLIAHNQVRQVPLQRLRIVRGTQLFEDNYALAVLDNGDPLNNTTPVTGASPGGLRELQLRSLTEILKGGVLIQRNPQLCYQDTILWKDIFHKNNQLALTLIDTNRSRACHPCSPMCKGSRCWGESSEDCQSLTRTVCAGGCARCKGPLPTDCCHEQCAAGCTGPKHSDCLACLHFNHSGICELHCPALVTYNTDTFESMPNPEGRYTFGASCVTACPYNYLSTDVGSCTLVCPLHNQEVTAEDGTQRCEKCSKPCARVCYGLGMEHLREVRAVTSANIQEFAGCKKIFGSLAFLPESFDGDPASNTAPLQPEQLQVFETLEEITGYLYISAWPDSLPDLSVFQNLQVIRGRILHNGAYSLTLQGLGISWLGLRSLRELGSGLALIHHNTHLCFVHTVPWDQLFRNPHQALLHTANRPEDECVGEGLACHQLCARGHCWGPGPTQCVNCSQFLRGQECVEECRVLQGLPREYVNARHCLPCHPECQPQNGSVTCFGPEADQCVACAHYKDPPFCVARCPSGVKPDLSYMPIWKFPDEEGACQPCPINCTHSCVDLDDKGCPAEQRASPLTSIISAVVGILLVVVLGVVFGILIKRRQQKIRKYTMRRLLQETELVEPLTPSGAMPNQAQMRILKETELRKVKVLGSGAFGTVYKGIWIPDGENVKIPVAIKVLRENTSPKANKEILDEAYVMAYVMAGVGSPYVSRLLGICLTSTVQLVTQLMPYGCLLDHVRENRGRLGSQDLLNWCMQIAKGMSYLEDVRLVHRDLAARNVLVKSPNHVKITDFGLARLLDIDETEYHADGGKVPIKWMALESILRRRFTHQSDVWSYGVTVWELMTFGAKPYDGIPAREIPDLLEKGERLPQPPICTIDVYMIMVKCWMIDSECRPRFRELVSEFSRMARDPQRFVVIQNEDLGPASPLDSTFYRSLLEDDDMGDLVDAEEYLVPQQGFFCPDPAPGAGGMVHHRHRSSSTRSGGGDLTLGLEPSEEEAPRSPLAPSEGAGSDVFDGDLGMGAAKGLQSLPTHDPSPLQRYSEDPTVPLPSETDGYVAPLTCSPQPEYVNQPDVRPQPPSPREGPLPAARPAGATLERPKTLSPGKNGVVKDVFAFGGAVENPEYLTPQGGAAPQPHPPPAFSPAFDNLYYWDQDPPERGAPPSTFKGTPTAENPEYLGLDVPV
- METHOD: Cell proliferation assay (CellTiter-Glo), Ba/F3 HER2-YVMA
- Assay type: cell-based
- TEST_PARAMETERS: read-out: Ba/F3 HER2-YVMA cell proliferation IC50
- Method: The gene encoding HER2-A775_G776insYVMA (“HER2-YVMA”) was synthesized at GeneRay, cloned into the retroviral construct pMSCV-puro (Biovector), and packaged into retroviral particles. The virus was used to infect Ba/F3 cells (RIKEN) at multiplicity of infection=1 or 10 for 1 day. […] Ba/F3 cells were plated at 1,000 cells/well (40 μL), or NCI-H1781 or A431 cells were plated at 2,000 cells/well (40 μL), in a 384-well plate for 1 day. […] Luminescence was measured on a plate reader. […]
READOUT_KIND: GI50

MOLECULE | READOUT_KIND | ASSAY_VALUE
C=CC(=O)N1CC=C(c2ncc3ncnc(Nc4ccc(Oc5ccn6ncnc6c5)c(C)c4)c3n2)CC1 [Example 18] | GI50 | < 100 nM
C=CC(=O)N1CCC(c2ncc3ncnc(Nc4ccc(Oc5ccn6ncnc6c5)c(C)c4)c3n2)=C[C@@H]1C [Example 94] | GI50 | < 100 nM
C=C(F)C(=O)N1CCN(c2ccc3ncnc(Nc4ccc(Oc5ccn6ncnc6c5)c(C)c4)c3n2)CC1 [Example 24] | GI50 | 500 to 1000 nM
C=CC(=O)N1CCN(c2ccc3ncnc(Nc4ccc(Oc5ccn6ncnc6c5)c(C)c4)c3n2)C[C@H]1C [Example 6] | GI50 | < 100 nM
Cc1cc(Nc2ncnc3ccc(C4=CCN(C(=O)/C=C/CN(C)C)CC4)nc23)ccc1Oc1ccn2ncnc2c1 [Example 13] | GI50 | < 100 nM
C=CC(=O)N1CC=C(c2ccc3ncnc(Nc4ccc(Oc5ccn6ncnc6c5)c(C)c4F)c3n2)CC1 [Example 5] | GI50 | < 100 nM
C=CC(=O)N1CC=C(c2ccc3ncnc(Nc4ccc(Oc5cc(Cl)n6ncnc6c5)c(C)c4)c3n2)CC1 [Example 16] | GI50 | < 100 nM
C=CC(=O)N1CC=C(c2ncc3ncnc(Nc4ccc(Oc5ccn6ncnc6c5)c(C)c4F)c3n2)CCC1 [Example 57] | GI50 | < 100 nM
C=CC(=O)N1CC=C(c2ccc3ncnc(Nc4cc(C)c(Oc5ccn6ncnc6c5)cc4F)c3n2)CC1 [Example 11] | GI50 | < 100 nM
C=CC(=O)N1CCN(c2ccc3ncnc(Nc4ccc(Oc5ccn6ncnc6c5)c(C)c4F)c3c2F)C[C@H]1C [Example 53] | GI50 | < 100 nM
Cc1cc(Nc2ncnc3ccc(C4=CCN(C(=O)/C=C/C5CCCN5C)CC4)nc23)ccc1Oc1ccn2ncnc2c1 (stereo not drawn) [Example 25] | GI50 | 100 to 500 nM
C=CC(=O)N1CCN(c2ccc3ncnc(Nc4ccc(Oc5ccn6ncnc6c5)c(C)c4F)c3c2F)CC1 [Example 93] | GI50 | < 100 nM
C=CC(=O)N1CC=C(c2ccc3ncnc(Nc4ccc(Oc5ccc6ccn(C)c6c5)c(C)c4)c3n2)CC1 [Example 71] | GI50 | 100 to 500 nM
C=CC(=O)N1CCN(c2ncc3ncnc(Nc4ccc(Oc5cc6ncnn6cn5)c(C)c4F)c3n2)C[C@H]1C [Example 73] | GI50 | < 100 nM
C=CC(=O)N1CCN(c2ncc3ncnc(Nc4ccc(Oc5ccn6ncnc6c5)c(C)c4F)c3n2)C[C@H]1C(F)F [Example 99] | GI50 | < 100 nM

----------
- TEST_SYSTEM: wild-type EGFR (A431 cells) (Homo sapiens, UniProt P00533)
- Construct: A431 bears amplification of the wild-type EGFR gene; endogenous in cells; host or cells: A431
- METHOD: Cellular phosphorylation assay, pEGFR (phospho-EGFR Tyr1068 AlphaLISA) in A431
- Format: cell-based
- TEST_PARAMETERS: compound incubated for 5 hours, EGF (30 ng/mL) for 15 minutes

COMPOUND | IC50
C=CC(=O)N1CCN(c2ncc3ncnc(Nc4ccc(Oc5ccc6c(c5)ncn6C)c(C)c4F)c3n2)C[C@H]1C [Example 68] | 500 to 1000 nM
C=CC(=O)N1CCN(c2ncc3ncnc(Nc4ccc(Oc5ccn6ncnc6c5)c(C)c4F)c3n2)C[C@H]1C(F)F [Example 99] | < 100 nM
C=CC(=O)N1C[C@H]2CC[C@@H]1CN2c1ncc2ncnc(Nc3ccc(Oc4ccn5ncnc5c4)c(C)c3F)c2n1 [Example 45] | ≥ 1000 nM
C=CC(=O)N1CCC(c2ncc3ncnc(Nc4ccc(Oc5cc(C)n6ncnc6c5)c(C)c4F)c3n2)=C[C@@H]1C [Example 96] | ≥ 1000 nM
C=CC(=O)N1CC=C(c2ncc3ncnc(Nc4ccc(Oc5ccn6ncnc6c5)c(C)c4)c3n2)C[C@@H]1C [Example 95] | ≥ 1000 nM
C=CC(=O)N1CCN(c2ncc3ncnc(Nc4ccc(Oc5ccn6ncnc6c5)c(C)c4F)c3n2)C[C@H]1CF [Example 81] | 100 to 500 nM
C=CC(=O)N1CC=C(c2ccc3ncnc(Nc4ccc(Oc5ccn6ncnc6c5)c(C)c4F)c3n2)CC1 [Example 5] | ≥ 1000 nM
C=CC(=O)N1CC=C(c2ccc3ncnc(Nc4ccc(Oc5ccn6ncnc6c5)c(C)c4)c3c2OC)CC1 [Example 19] | ≥ 1000 nM
C=CC(=O)N1CCN(c2ncc3ncnc(Nc4ncc(Oc5ccn6ncnc6c5)c(C)c4F)c3n2)C[C@H]1C [Example 63] | ≥ 1000 nM
C=CC(=O)N1CC=C(c2ccc3ncnc(Nc4ccc(Oc5ccc6ocnc6c5)c(C)c4)c3n2)CC1 [Example 10] | < 100 nM
C=CC(=O)N1CCC(c2ncc3ncnc(Nc4ccc(Oc5ccn6ncnc6c5)c(C(F)F)c4F)c3n2)=C[C@@H]1C [Example 60] | 500 to 1000 nM
C=CC(=O)N1CCN(c2ncc3ncnc(Nc4ccc(Oc5ccn6ncnc6c5)c(C)c4F)c3n2)C[C@@H]1C [Example 49] | ≥ 1000 nM
C=CC(=O)N1C(C)CN(c2ccc3ncnc(Nc4ccc(Oc5ccn6ncnc6c5)c(C)c4)c3n2)CC1C (stereo not drawn) [Example 92] | ≥ 1000 nM
C=CC(=O)N1CCN(c2ncc3ncnc(Nc4cc(C)c(Oc5cc(C)n6ncnc6c5)cc4F)c3n2)C[C@H]1C [Example 51] | ≥ 1000 nM
C=CC(=O)N1CC=C(c2ccc3ncnc(Nc4ccc(Oc5ccn6ncnc6c5)c(C)c4)c3n2)CC1 [Example 12] | 500 to 1000 nM
